Target: T1, EsCas13d, nuclease-dead (Eubacterium siraeum, UniProt B0MS50, R295A;H300A;R849A;H854A)
T1 sequence: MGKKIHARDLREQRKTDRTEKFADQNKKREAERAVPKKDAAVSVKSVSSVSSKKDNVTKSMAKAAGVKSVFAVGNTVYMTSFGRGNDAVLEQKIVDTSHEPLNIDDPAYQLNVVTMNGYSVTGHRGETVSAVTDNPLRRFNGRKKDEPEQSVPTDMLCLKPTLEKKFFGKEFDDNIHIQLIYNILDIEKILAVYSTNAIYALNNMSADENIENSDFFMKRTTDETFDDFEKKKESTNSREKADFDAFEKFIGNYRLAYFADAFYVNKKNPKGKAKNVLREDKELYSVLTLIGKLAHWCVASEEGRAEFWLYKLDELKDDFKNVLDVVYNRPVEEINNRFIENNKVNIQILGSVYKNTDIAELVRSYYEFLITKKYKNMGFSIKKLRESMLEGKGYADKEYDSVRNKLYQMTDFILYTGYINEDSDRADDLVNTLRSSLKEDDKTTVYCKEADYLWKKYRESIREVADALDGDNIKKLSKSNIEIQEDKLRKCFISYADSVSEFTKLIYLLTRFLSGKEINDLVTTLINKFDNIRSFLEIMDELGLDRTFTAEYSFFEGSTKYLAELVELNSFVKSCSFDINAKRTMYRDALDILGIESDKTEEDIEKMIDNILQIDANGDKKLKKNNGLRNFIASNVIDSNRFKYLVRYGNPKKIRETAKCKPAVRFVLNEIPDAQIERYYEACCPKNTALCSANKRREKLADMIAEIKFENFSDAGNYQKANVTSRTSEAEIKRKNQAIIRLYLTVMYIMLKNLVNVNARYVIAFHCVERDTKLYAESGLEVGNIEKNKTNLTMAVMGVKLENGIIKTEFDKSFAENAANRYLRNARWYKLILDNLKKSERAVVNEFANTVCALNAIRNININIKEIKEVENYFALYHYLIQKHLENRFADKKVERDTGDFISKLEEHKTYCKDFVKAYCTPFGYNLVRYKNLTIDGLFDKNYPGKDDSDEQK
Assay: crRNA (strand 1, pre-loaded); Mg2+; 40 mM Tris-HCl pH 7.5, 150 mM NaCl, 6 mM MgCl2, 1 mM DTT, 0.1% Tween-20, 0.2 mg/ml BSA; 25 C; 10 min per concentration, then washed
Settings: tags: His6-TwinStrep-SUMO cleaved; N-terminal SNAP kept (SNAP-Surface 488); label: 3' end held by stalled T7 RNA polymerase
pKd: −log10 of the molar value.
Readings of pKd for the listed binders

binder: target 1 insC 3' of 13,insA 3' of 7 (mixed) RNA 1: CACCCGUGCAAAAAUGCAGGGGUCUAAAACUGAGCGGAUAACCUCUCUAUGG RNA 2: GGGAAUGGAUCCACAUCUACGAAUUCGUACCAUAGAGAGCGUUAUCACGCUCACCGAGAUCGGAAGAGCACACGU
pKd: 7.85

binder: target 1 C21U (mixed) RNA 1: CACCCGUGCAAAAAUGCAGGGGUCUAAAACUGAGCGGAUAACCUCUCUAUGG RNA 2: GGGAAUGGAUCCACAUCUACGAAUUCGUACUAUAGAGAGGUUAUCCGCUCACCGAGAUCGGAAGAGCACACGU
pKd: 8.19

binder: target 1 insC 3' of 11,insU 3' of 4 (mixed) RNA 1: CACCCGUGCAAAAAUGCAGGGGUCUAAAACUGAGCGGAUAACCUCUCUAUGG RNA 2: GGGAAUGGAUCCACAUCUACGAAUUCGUACCAUAGAGAGGUCUAUCCGCUUCACCGAGAUCGGAAGAGCACACGU
pKd: 7.63

binder: target 1 insC 3' of 20,insA 3' of 19 (mixed) RNA 1: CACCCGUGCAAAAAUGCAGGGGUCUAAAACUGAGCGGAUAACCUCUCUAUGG RNA 2: GGGAAUGGAUCCACAUCUACGAAUUCGUACCACUAAGAGAGGUUAUCCGCUCACCGAGAUCGGAAGAGCACACGU
pKd: 8.04

binder: target 1 insG 3' of 8,insG 3' of 8 (mixed) RNA 1: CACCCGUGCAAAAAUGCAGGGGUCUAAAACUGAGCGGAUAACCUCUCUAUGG RNA 2: GGGAAUGGAUCCACAUCUACGAAUUCGUACCAUAGAGAGGUUAUGGCCGCUCACCGAGAUCGGAAGAGCACACGU
pKd: 7.34

binder: target 2 MT 5'PFS GCA 3'PFS AAC (mixed) RNA 1: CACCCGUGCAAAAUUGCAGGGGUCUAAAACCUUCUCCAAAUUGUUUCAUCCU RNA 2: GGGAAUGGAUCCACAUCUACGAAUUCGCAAGGAUGAAACAAUUUGGAGAAGAACAGAUCGGAAGAGCACACGU
pKd: 7.92

binder: target 1 insU 3' of 21,insU 3' of 2 (mixed) RNA 1: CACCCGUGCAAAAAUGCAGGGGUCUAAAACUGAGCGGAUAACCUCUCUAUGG RNA 2: GGGAAUGGAUCCACAUCUACGAAUUCGUACCUAUAGAGAGGUUAUCCGCUCUACCGAGAUCGGAAGAGCACACGU
pKd: 7.42

binder: target 1 insG 3' of 19,insU 3' of 9 (mixed) RNA 1: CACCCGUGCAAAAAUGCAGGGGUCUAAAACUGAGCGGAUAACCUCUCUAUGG RNA 2: GGGAAUGGAUCCACAUCUACGAAUUCGUACCAUGAGAGAGGUUAUUCCGCUCACCGAGAUCGGAAGAGCACACGU
pKd: 7.04

Entry source: paper PMC10786891
